Experimental System: T1, CFP-ARC5 (TNKS2) (human, N-terminal mCerulean fusion omitted; conventional ARC limits)
T1 chain: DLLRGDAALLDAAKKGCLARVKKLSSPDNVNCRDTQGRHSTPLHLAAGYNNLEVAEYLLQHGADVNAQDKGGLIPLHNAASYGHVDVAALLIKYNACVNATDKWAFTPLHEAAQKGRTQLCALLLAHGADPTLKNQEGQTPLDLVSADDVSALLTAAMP
Test: FRET or BRET; titration for Kd after Song et al.: CFP-fusion kept constant (50 nM to 1.1 µM), YFP-fusion 0-4,000 nM; FRET emission on excitation at 430 nm; assay buffer 10 mM Bis-Tris-Propane pH 7.0, 3% PEG20,000, 0.01% Triton-X100, 0.5 mM TCEP; 384-well plates, 4 replicates; the paper calls the constants an estimation
Settings: both partners purified

Binder	Kd / µM
REAGDGEE (also called TBM (REAGDGEE); YFP-fused TBM; source: E. coli BL21(DE3), purified (IMAC); not shown: mCitrine (YFP), N-terminal, kept) [YFP-TBM]	0.033
